Taken from ChEMBL document CHEMBL5046218.

# TARGET OR SYSTEM: D(3) dopamine receptor (Homo sapiens, UniProt P35462)
# Sequence (P35462 whole entry): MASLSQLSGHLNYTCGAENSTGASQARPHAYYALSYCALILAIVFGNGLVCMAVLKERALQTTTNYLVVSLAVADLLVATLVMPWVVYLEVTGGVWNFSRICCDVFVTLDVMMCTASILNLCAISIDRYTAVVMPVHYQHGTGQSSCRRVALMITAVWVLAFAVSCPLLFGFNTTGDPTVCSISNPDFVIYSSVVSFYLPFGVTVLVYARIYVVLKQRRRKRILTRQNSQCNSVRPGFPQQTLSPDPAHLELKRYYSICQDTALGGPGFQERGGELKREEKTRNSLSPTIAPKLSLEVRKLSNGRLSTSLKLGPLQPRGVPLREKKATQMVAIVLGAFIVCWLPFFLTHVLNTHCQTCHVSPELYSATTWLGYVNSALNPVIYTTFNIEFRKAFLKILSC
# ASSAY NOTES: Displacement of [3H]-N-methylspiperone from human dopamine D3 receptor expressed in HEK293 cell membranes incubated for 60 mins by microbeta scintillation counting analysis
# Design: species or system Membrane
pKi: −log10 of the molar value.
EXPERIMENTAL ENDPOINT: pKi

Asked: Record request: pKi value, item Oc1cccc([C@]23CCC[C@H](NCC2)[C@H]3O)c1
Given back: < 4.00

Asked: Record request: pKi value, item Oc1cccc([C@]23CCC[C@H](NCC2)[C@@H]3O)c1
Given back: < 4.00

Asked: Record request: pKi value, item CCOC(=O)/C=C1\[C@@H]2CCC[C@@]1(c1cccc(O)c1)CCN2
Given back: < 4.00
